Source: the supplement of paper PMC6555819

# System: VDR:RXRa (NR concentration 270 nM, RXRa partner concentration 90 nM)
# protocol.text: PBM binding z-score (relative to random genomic background probes); higher = stronger binding; sequences stand for … in GC…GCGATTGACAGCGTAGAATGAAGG
Please note: true (1) applies when PBM binding z-score is 0.6 or greater, and false (0) applies otherwise.

Below, 3 sequences whose answers are already recorded.
TTACCAAGGTGAAATGTCGTTGATGCACGCCTTG; false (0)
CCTACTGGGCCAAAATGGTCATTGATGCCGATAA; false (0)
TCTCGGAGGACACGAAGGTCTGAGCTTTCCAGAG; false (0)

### Prompt Could you verify whether the entry ATCTCTAGGTAACAAGTGCAGTGAAAGAGAGGAC shows PBM binding z-score of no less than 0.6?
### Response false (0)

### Prompt Could you verify whether the entry AGAATGAGGTTATTAGGATCAGGGAATTGCGGTC shows PBM binding z-score of no less than 0.6?
### Response true (1)

### Prompt Could you verify whether the entry GATACAGGGTCACCTAGAGGCCAGAGTATGGAAA shows PBM binding z-score of no less than 0.6?
### Response true (1)

### Prompt Could you verify whether the entry TTACCAAGGTGAAGGACGTTGATCCCTCTGTAGA shows PBM binding z-score of no less than 0.6?
### Response false (0)

### Prompt Could you verify whether the entry CAAACTAGGTCAAGAGGTCAGAGTCCGCTTCCCG shows PBM binding z-score of no less than 0.6?
### Response true (1)

### Prompt Could you verify whether the entry TAGCCTAGGTCGTTGGGCCAGTATAGTACGCATC shows PBM binding z-score of no less than 0.6?
### Response false (0)

### Prompt Could you verify whether the entry TCTCGGAGGACATGAAAGGTCAGAGCTCGACATC shows PBM binding z-score of no less than 0.6?
### Response true (1)

### Prompt Could you verify whether the entry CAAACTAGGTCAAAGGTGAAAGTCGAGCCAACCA shows PBM binding z-score of no less than 0.6?
### Response true (1)

### Prompt Could you verify whether the entry TAGCCGAGGTCATGGGCCAGTATACCACGCGAAC shows PBM binding z-score of no less than 0.6?
### Response true (1)

### Prompt Could you verify whether the entry TAGCCTAGGTCATGGGCCAGAATACCACGCGAAC shows PBM binding z-score of no less than 0.6?
### Response true (1)

### Prompt Could you verify whether the entry TAGCCTAGGTCATTCACGGGCCAGTATAGAAAGC shows PBM binding z-score of no less than 0.6?
### Response true (1)

### Prompt Could you verify whether the entry TATACAGGGTCAAAGGCCAGAGTACGAATGTCGA shows PBM binding z-score of no less than 0.6?
### Response true (1)

###

# System: PPARg:RXRa (NR concentration 180 nM, RXRa partner concentration 90 nM)
# protocol.text: PBM binding z-score (relative to random genomic background probes); higher = stronger binding; sequences stand for … in GC…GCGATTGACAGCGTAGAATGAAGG
Consider the following sequences; for each one, report its PBM binding z-score.
Answers are plain numbers.

Example cases with answers are listed next.
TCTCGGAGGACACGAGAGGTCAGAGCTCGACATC; 0.952
GGTACAGGGTCAAGGCCAGAGTACGCGTATTGAT; 5.62
TCTTGTAGATTAAAGGTTAAGAAAGCCGAAGCCT; 5.78
ATACCAAGGTGATCGTGAGGTGGTTGATACTAAC; 0.411

Alright, here's another sequence for you.
ATCTCTAGGCAACAAGTTCAGTGAAAGAGAGGAC yielded PBM binding z-score of 0.668
